Source listed as patent US20250170266A1.

# studySystem: hTLR7 (Homo sapiens, UniProt Q9NYK1)
# Sequence (Q9NYK1 27-1049): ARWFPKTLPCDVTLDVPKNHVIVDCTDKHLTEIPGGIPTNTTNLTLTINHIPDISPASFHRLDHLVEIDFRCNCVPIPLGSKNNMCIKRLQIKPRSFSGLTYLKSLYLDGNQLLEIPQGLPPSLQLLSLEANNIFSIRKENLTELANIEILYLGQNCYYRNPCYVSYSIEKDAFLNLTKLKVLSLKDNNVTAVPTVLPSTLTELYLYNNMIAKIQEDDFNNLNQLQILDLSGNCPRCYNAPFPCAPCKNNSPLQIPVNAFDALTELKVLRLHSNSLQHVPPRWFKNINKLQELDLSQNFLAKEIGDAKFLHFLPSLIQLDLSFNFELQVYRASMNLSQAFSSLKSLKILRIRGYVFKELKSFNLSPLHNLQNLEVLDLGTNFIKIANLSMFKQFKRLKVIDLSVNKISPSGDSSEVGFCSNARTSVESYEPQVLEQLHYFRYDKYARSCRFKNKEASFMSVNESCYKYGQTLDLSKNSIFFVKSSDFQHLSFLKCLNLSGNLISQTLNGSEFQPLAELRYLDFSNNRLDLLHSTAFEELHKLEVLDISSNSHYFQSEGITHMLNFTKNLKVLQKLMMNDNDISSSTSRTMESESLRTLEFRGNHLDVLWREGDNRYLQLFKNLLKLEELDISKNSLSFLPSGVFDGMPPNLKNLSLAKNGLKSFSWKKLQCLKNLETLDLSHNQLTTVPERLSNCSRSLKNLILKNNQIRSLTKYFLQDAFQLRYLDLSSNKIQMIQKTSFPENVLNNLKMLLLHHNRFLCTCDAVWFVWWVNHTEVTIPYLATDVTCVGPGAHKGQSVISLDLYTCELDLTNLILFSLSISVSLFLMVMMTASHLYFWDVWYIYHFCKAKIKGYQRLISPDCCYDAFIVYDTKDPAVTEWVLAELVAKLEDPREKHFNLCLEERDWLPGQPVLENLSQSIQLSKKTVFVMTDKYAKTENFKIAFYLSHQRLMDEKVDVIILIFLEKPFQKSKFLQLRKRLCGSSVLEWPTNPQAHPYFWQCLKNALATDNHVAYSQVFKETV
# assayOverview: Reporter Gene Assay (RGA), HEK-Blue hTLR7 reporter cells, SEAP readout
# details: overnight incubation, SEAP absorbance 620 nm
Each entry below carries its reported pEC50.
# reply with the number alone; pEC50 is -log10 of concentration in mol/L

Use the examples below as a reference point.
compound="CCOc1nc(N)c2nc(O)n(Cc3ccc(CN[C@@H](Cc4ccccc4)C(=O)O)cc3OC)c2n1 [Compound 117]" readoutvalue=4.89
compound="CCOc1nc(N)c2nc(O)n(Cc3ccc(CNC/C=C/CN)cc3OC)c2n1 [Compound 126]" readoutvalue=7.48

Q: Fill in pEC50 for record CCCCCNc1nc(N)c2nc(O)n(Cc3ccc(CNCC(C)(C)O)cc3)c2n1 [Compound 184]
Result: 6.56

Q: Fill in pEC50 for record CCOc1nc(N)c2nc(O)n(Cc3ccc(CN4CCN(CCNC(=O)CC(SC[C@@H](N)C(=O)O)C(=O)O)CC4)cc3OC)c2n1 (stereo partly drawn) [Compound 113]
Result: 6.73

Q: Fill in pEC50 for record CCOc1nc(N)c2nc(O)n(Cc3ccc(CN[C@H](C(=O)O)[C@@H](C)CC)cc3OC)c2n1 [Compound 121]
Result: 6.47

Q: Fill in pEC50 for record CCOc1nc(N)c2nc(O)n(Cc3ccc(CNCCCN4CCN(CCCN)CC4)cc3OC)c2n1 [Compound 104]
Result: 5.88

Q: Fill in pEC50 for record CCOc1nc(N)c2nc(O)n(Cc3ccc(CNCc4ccc(CNCc5ccc(CN)cc5)cc4)cc3OC)c2n1 [Compound 146]
Result: 8.24

Q: Fill in pEC50 for record CCOc1nc(N)c2nc(O)n(Cc3ccc(CN(CC(=O)O)CC(=O)O)cc3OC)c2n1 [Compound 120]
Result: 7.48

Q: Fill in pEC50 for record CCCC(CO)Oc1nc(N)c2nc(O)n(Cc3ccc(CN)cc3)c2n1 (stereo not drawn) [Compound 182]
Result: 8.68

----------
# System: Mouse splenocytes
# assayOverview: Mouse Splenocyte Assay, cytokine release (HTRF)
# Type: cell-based
# details: Splenocyte, 24 hours, mIL6 in supernatant, read-out: Splenocyte IL6 EC50
resultType: EC50 (nM)
// units = nM; emit number, no label

Use the examples below as a reference point.
compound="CCCCCNc1nc(N)c2nc(O)n(Cc3ccc(CNCCCCN)cc3)c2n1 [Compound 190]" unitslabel=nM readoutvalue=106
compound="CCCCCNc1nc(N)c2nc(O)n(Cc3ccc(CNCC(C)(C)O)cc3)c2n1 [Compound 184]" unitslabel=nM readoutvalue=144

Q: # assay system Mouse splenocytes: give EC50 of CCOc1nc(N)c2nc(O)n(Cc3ccc(CNC4CCC4)cc3OC)c2n1 [Compound 108]
Result: 71.9

Q: # assay system Mouse splenocytes: give EC50 of CCOc1nc(N)c2nc(O)n(Cc3ccc(CNCCCCCC(=O)O)cc3OC)c2n1 [Compound 115]
Result: 3240

Q: # assay system Mouse splenocytes: give EC50 of CCCCOc1nc(N)c2nc(O)n(Cc3ccc(N4CCC5(CCNCC5)CC4)cc3OC)c2n1 [Compound 171]
Result: 8.9

Q: # assay system Mouse splenocytes: give EC50 of CCCCOc1nc(N)c2nc(O)n(Cc3ccc(CN4CCC(CCN)CC4)cc3OC)c2n1 [Compound 158]
Result: 3.2

Q: # assay system Mouse splenocytes: give EC50 of CCCCCNc1nc(N)c2nc(O)n(Cc3ccc(CNCc4ccc(CN)cc4)cc3)c2n1 [Compound 191]
Result: 45.9
